Values compiled from ChEMBL document CHEMBL3885861.

# Species on record: Rattus norvegicus
# ASSAY_COMMENT: Open TG-GATES - Regimen: Single
# Format: toxicity, organism-based, Sprague-Dawley
# Parameters: regimen Single, gender Male, age 6 weeks
# CONDITION_DESCRIPTION: in vivo, po, 10 mg/kg, 9 h, tissue Plasma, route gavage, dose level Low

{"MOLECULE": "CC1=C(/C=C/C(C)=C/C=C/C(C)=C/CO)C(C)(C)CCC1 [RETINOL]", "ALT (IU/L)": 34.8}
{"MOLECULE": "CN(C)CCN(Cc1cccs1)c1ccccn1", "ALT (IU/L)": 30.2}
{"MOLECULE": "CC(C)OC(=O)C(C)(C)Oc1ccc(C(=O)c2ccc(Cl)cc2)cc1 [FENOFIBRATE]", "ALT (IU/L)": 42.4}
{"MOLECULE": "CN(C)CCCN1c2ccccc2CCc2ccccc21 [IMIPRAMINE]", "ALT (IU/L)": 37.6}
{"MOLECULE": "CN(C)CCCN1c2ccccc2CCc2ccc(Cl)cc21 [CLOMIPRAMINE]", "ALT (IU/L)": 35.8}
